experimental.system: human ether-à-go-go-related gene (hERG) potassium channel (human, UniProt Q12809);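 note: peak tail current of the secondary pulse compared with the same well before compound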
Sequence (Q12809 whole entry, looked up): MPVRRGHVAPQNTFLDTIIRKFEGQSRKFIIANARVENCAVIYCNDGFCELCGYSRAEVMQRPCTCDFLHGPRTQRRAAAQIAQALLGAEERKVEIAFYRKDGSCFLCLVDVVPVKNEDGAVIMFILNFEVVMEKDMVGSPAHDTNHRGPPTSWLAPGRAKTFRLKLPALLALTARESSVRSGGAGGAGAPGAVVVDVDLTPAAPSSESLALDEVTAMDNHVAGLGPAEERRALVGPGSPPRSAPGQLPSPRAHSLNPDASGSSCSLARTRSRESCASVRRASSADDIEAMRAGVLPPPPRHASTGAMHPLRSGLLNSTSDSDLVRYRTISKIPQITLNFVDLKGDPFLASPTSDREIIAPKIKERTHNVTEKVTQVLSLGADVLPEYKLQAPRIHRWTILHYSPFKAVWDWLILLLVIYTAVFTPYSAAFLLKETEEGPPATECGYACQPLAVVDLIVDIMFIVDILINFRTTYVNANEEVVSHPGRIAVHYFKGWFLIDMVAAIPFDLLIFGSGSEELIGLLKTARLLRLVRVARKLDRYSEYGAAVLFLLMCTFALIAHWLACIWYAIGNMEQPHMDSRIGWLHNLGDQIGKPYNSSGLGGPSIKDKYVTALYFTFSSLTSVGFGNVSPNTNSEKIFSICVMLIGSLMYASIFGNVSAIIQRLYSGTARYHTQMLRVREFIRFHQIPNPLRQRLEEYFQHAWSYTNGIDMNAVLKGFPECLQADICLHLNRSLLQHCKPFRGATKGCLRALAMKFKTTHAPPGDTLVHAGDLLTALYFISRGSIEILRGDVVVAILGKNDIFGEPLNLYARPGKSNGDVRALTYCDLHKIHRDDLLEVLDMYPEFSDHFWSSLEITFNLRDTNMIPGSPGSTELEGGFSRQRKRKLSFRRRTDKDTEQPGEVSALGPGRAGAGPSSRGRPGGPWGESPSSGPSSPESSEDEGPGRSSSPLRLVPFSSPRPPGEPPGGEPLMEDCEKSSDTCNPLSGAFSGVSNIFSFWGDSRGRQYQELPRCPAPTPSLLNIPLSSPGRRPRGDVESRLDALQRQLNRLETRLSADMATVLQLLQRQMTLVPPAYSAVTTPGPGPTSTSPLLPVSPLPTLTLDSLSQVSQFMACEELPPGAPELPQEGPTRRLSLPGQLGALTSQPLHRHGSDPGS
test.method.notes: primary screen, population patch clamp on CHO cells stably expressing hERG; higher = less effect of the substance
About 14,000 (4.5%) of roughly 310,000 compounds showed an effect of 50% or more. The effect is printed as a negative number. What follows is part of a selection rich in strong results, with near analogues and random picks from the rest.
outcome.measure: hERG current change (%, negative = inhibition) at 10uM (%)
Report as a plain number; the unit % is understood.

Enter reported hERG current change (%, negative = inhibition) at 10uM observed with human ether-à-go-go-related gene (hERG) potassium channel (human, UniProt Q12809) for CCOc1cccc(CNc2ccc(O)cc2)c1OCc1ccc(Cl)cc1 10.3

Others:
Enter reported hERG current change (%, negative = inhibition) at 10uM observed with human ether-à-go-go-related gene (hERG) potassium channel (human, UniProt Q12809) for COc1cccc(CNCCO)c1OCc1ccc(Cl)cc1.Cl -18

Enter reported hERG current change (%, negative = inhibition) at 10uM observed with human ether-à-go-go-related gene (hERG) potassium channel (human, UniProt Q12809) for CCC(c1nnnn1Cc1cccs1)N1CCN(C(=O)c2ccco2)CC1 (stereo not drawn) -36.5

Enter reported hERG current change (%, negative = inhibition) at 10uM observed with human ether-à-go-go-related gene (hERG) potassium channel (human, UniProt Q12809) for COc1ccccc1OCC(=O)Nc1cccc(-c2nc3ccccc3o2)c1 0.23

Enter reported hERG current change (%, negative = inhibition) at 10uM observed with human ether-à-go-go-related gene (hERG) potassium channel (human, UniProt Q12809) for CCOc1ccc(Nc2ccc3nonc3c2[N+](=O)[O-])cc1 10.6

Enter reported hERG current change (%, negative = inhibition) at 10uM observed with human ether-à-go-go-related gene (hERG) potassium channel (human, UniProt Q12809) for CC(OC(=O)C1CCC(=O)N1)C(=O)Nc1cc(Cl)cc(Cl)c1 (stereo not drawn) 2.72

Enter reported hERG current change (%, negative = inhibition) at 10uM observed with human ether-à-go-go-related gene (hERG) potassium channel (human, UniProt Q12809) for CCc1ccc(-c2nc(SCC(=O)NC3CCS(=O)(=O)C3)n[nH]2)cc1 (stereo not drawn) 4.84

Enter reported hERG current change (%, negative = inhibition) at 10uM observed with human ether-à-go-go-related gene (hERG) potassium channel (human, UniProt Q12809) for Cc1ccc(C)c(NC(=O)COC(=O)c2cccc3c2C(=O)c2ccccc2C3=O)c1 -14.2

Enter reported hERG current change (%, negative = inhibition) at 10uM observed with human ether-à-go-go-related gene (hERG) potassium channel (human, UniProt Q12809) for O=[N+]([O-])c1ccc(Nc2ccccc2)c2nonc12 -8.36

Enter reported hERG current change (%, negative = inhibition) at 10uM observed with human ether-à-go-go-related gene (hERG) potassium channel (human, UniProt Q12809) for COCCn1nnnc1C(c1ccccc1OC)N1CCN(C(=O)c2ccco2)CC1 (stereo not drawn) -16.1

Enter reported hERG current change (%, negative = inhibition) at 10uM observed with human ether-à-go-go-related gene (hERG) potassium channel (human, UniProt Q12809) for CC1(O)CC(=O)N(c2ccccc2)O1 (stereo not drawn) -1.7

###

experimental.system: human ether-à-go-go-related gene (hERG) potassium channel (human);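 note: peak tail current of the secondary pulse compared with the same well before compound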
test.method.notes: primary screen, population patch clamp on CHO cells stably expressing hERG; higher = less effect of the substance
Hit rate of the full screen: of about 310,000 compounds, about 14,000 (4.5%) showed an effect of 50% or more. Effects have a minus sign here. For the sample, strong results were picked, then their nearest neighbours and some compounds at random.
outcome.measure: hERG current change (%, negative = inhibition) at 10uM (%)
Report as a plain number; the unit % is understood.

Recorded results for 10 molecules are shown here.
Enter reported hERG current change (%, negative = inhibition) at 10uM observed with human ether-à-go-go-related gene (hERG) potassium channel (human) for Cc1ccc(C(=O)CSc2ccccc2C(=O)O)cc1 16.9

Enter reported hERG current change (%, negative = inhibition) at 10uM observed with human ether-à-go-go-related gene (hERG) potassium channel (human) for O=S(=O)(c1ccccc1F)N1CCC(c2nc3ccccc3[nH]2)CC1 -13.3

Enter reported hERG current change (%, negative = inhibition) at 10uM observed with human ether-à-go-go-related gene (hERG) potassium channel (human) for O=S(=O)(c1cccc(C(F)(F)F)c1)N1CCC(c2nc3ccccc3[nH]2)CC1 0.277

Enter reported hERG current change (%, negative = inhibition) at 10uM observed with human ether-à-go-go-related gene (hERG) potassium channel (human) for O=S(=O)(c1ccc(F)cc1)N1CCC(c2nc3ccccc3[nH]2)CC1 -2.46

Enter reported hERG current change (%, negative = inhibition) at 10uM observed with human ether-à-go-go-related gene (hERG) potassium channel (human) for CCNC(=O)Nn1c(-c2ccccc2)nc2ccccc2c1=O 22.9

Enter reported hERG current change (%, negative = inhibition) at 10uM observed with human ether-à-go-go-related gene (hERG) potassium channel (human) for CCC(C)(C)n1nnnc1C(c1ccc2ncccc2c1)N1CCN(Cc2ccc3c(c2)OCO3)CC1 (stereo not shown) -69.7

Enter reported hERG current change (%, negative = inhibition) at 10uM observed with human ether-à-go-go-related gene (hERG) potassium channel (human) for COc1cc(C(CCN2CCCCC2)c2c(OC)cc(OC)c3c(C)cc(=O)oc23)cc(OC)c1OC (stereo not shown) -99.6

Enter reported hERG current change (%, negative = inhibition) at 10uM observed with human ether-à-go-go-related gene (hERG) potassium channel (human) for CC(=O)Nc1ccc(S(=O)(=O)N2CCC(c3nc4ccccc4[nH]3)CC2)cc1 -18.4

Enter reported hERG current change (%, negative = inhibition) at 10uM observed with human ether-à-go-go-related gene (hERG) potassium channel (human) for O=S(=O)(NCc1ccc2c(c1)OCO2)c1cccc(S(=O)(=O)N2CCOCC2)c1 10.6

Enter reported hERG current change (%, negative = inhibition) at 10uM observed with human ether-à-go-go-related gene (hERG) potassium channel (human) for Cc1c(NC(=O)c2ccco2)cccc1C(=O)NN1C(=O)c2ccccc2C1=O 16.4

Others:
Enter reported hERG current change (%, negative = inhibition) at 10uM observed with human ether-à-go-go-related gene (hERG) potassium channel (human) for COc1ccc(C2N=C(Nc3ccc(C)cc3)Nc3nc(C)cc(=O)n32)cc1 (stereo not shown) 1.81

Enter reported hERG current change (%, negative = inhibition) at 10uM observed with human ether-à-go-go-related gene (hERG) potassium channel (human) for CCN(CC)CCC(c1cc(OC)c(OC)c(OC)c1)c1c(OC)cc(OC)c2c(C)cc(=O)oc12 (stereo not shown) -48.5

Enter reported hERG current change (%, negative = inhibition) at 10uM observed with human ether-à-go-go-related gene (hERG) potassium channel (human) for O=C(O)C1C2CCC(C2)C1C(=O)NCc1ccco1 (stereo not shown) -8.3

Enter reported hERG current change (%, negative = inhibition) at 10uM observed with human ether-à-go-go-related gene (hERG) potassium channel (human) for O=C(O)c1cc2nc(-c3ccccc3)cc(-c3ccccc3)n2n1 6.39

Enter reported hERG current change (%, negative = inhibition) at 10uM observed with human ether-à-go-go-related gene (hERG) potassium channel (human) for c1ccc(Cn2nnnc2C(c2ccccc2)N2CCN(c3nc4ccccc4s3)CC2)cc1 (stereo not shown) -11.7

Enter reported hERG current change (%, negative = inhibition) at 10uM observed with human ether-à-go-go-related gene (hERG) potassium channel (human) for O=C(/C=C/c1cccs1)c1ccc(Br)cc1 7.19

Enter reported hERG current change (%, negative = inhibition) at 10uM observed with human ether-à-go-go-related gene (hERG) potassium channel (human) for COC(=O)CCC(=O)OC1(C)C(=O)C2=CN(CCCOC(C)C)C(c3ccc(OC)cc3)=CC2=C(Br)C1=O (stereo not shown) -22.7

Enter reported hERG current change (%, negative = inhibition) at 10uM observed with human ether-à-go-go-related gene (hERG) potassium channel (human) for O=c1[nH]c(=O)n(C2OC(CO)C(O)C2O)cc1Br (stereo not shown) 26.2

Enter reported hERG current change (%, negative = inhibition) at 10uM observed with human ether-à-go-go-related gene (hERG) potassium channel (human) for COCCn1nnnc1C(c1ccccc1)N1CCN(Cc2ccc3c(c2)OCO3)CC1.Cl (stereo not shown) -21.6

###

Items are presented alongside their recorded hERG current change (%, negative = inhibition) at 10uM.
experimental.system: human ether-à-go-go-related gene (hERG) potassium channel (human, UniProt Q12809);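 note: peak tail current of the secondary pulse compared with the same well before compound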
test.method.notes: primary screen, population patch clamp on CHO cells stably expressing hERG; higher = less effect of the substance
About 14,000 (4.5%) of roughly 310,000 compounds showed an effect of 50% or more. The effect is printed as a negative number. This excerpt belongs to a sample that is enriched for strong results.

Need hERG current change (%, negative = inhibition) at 10uM of CC(C)CN(CC(C)C)C(=O)c1cc2c(=O)n3ccccc3nc2s1 , thanks. 7.12%

Need hERG current change (%, negative = inhibition) at 10uM of CCOC(=O)C(C)CC(C)C(=O)N1CCOCCN(C(=O)C(C)CC(C)C(=O)OCC)CCOCC1 (stereo not drawn) , thanks. -9.48%

Need hERG current change (%, negative = inhibition) at 10uM of COc1ccccc1N(C)S(=O)(=O)c1ccc(C(=O)OCC(=O)NCc2cccs2)cc1 , thanks. 5.35%

Others:
Need hERG current change (%, negative = inhibition) at 10uM of CCc1cccc2c(C(=S)N3CCCC3)c[nH]c12 , thanks. 8.97%

Need hERG current change (%, negative = inhibition) at 10uM of Cc1cccn2c(CN3CCCC(c4ccccc4)C3)c(C(=O)N3CCOCC3)nc12 (stereo not drawn) , thanks. -68.7%

Need hERG current change (%, negative = inhibition) at 10uM of COc1ccc(/C=C2\SC(=O)N(CCNC(=O)Cc3coc4cc(C)ccc34)C2=O)cc1OC , thanks. 4.76%

Need hERG current change (%, negative = inhibition) at 10uM of Cl.c1ccc(CSCc2cn3ccccc3n2)cc1 , thanks. 2.98%

Need hERG current change (%, negative = inhibition) at 10uM of Cc1cccn2c(CN3CCSCC3)c(C(=O)N3CCOCC3)nc12 , thanks. 0.407%

Need hERG current change (%, negative = inhibition) at 10uM of CC(C)C(NC(=O)C1CCCCC1)C(=O)NCc1ccccn1 (stereo not drawn) , thanks. 9.17%

Need hERG current change (%, negative = inhibition) at 10uM of CC1CN(CC(=O)NCc2ccc(F)cc2)CC(C)O1 (stereo not drawn) , thanks. 7.79%

Need hERG current change (%, negative = inhibition) at 10uM of O=C(c1ccc(C(F)(F)F)cc1)C1CCCN(Cc2ccncc2)C1 (stereo not drawn) , thanks. -23.7%

Need hERG current change (%, negative = inhibition) at 10uM of Cn1nc(C(=O)N2CCCC2)c2ccccc2c1=O , thanks. 23%

Need hERG current change (%, negative = inhibition) at 10uM of COc1cc2ncnc(NCc3ccc(C)o3)c2cc1OC , thanks. -11.5%

Need hERG current change (%, negative = inhibition) at 10uM of CCCc1[nH]nc2c1C1(C(=O)N(CC)c3ccccc31)C(C#N)=C(N)O2 (stereo not drawn) , thanks. -6.38%

Need hERG current change (%, negative = inhibition) at 10uM of N#Cc1ccc(Oc2nc(Nc3ccc(F)cc3)nc(N3CCCC3)n2)cc1 , thanks. 1.63%

Need hERG current change (%, negative = inhibition) at 10uM of Cc1cccn2c(CN[C@@H]3CCCC[C@H]3c3ccccc3)c(C(=O)N3CCOCC3)nc12 , thanks. -12.9%

Need hERG current change (%, negative = inhibition) at 10uM of Cc1cccc(NC(=O)NCCN2CCCCC2)c1 , thanks. -25%

Need hERG current change (%, negative = inhibition) at 10uM of O=C(CNc1ccc2ccccc2c1)N/N=C/c1ccncc1 , thanks. -8.31%

Need hERG current change (%, negative = inhibition) at 10uM of O=C(NCCn1ccc2ccccc21)c1cccc([N+](=O)[O-])c1 , thanks. -16.9%

Need hERG current change (%, negative = inhibition) at 10uM of CC(=O)c1cccc(OCc2cc(C(=O)NCCC3=CCCCC3)no2)c1 , thanks. 7.85%

Need hERG current change (%, negative = inhibition) at 10uM of CC(SC#N)C(=O)C12CC3CC(CC(C3)C1)C2 (stereo not drawn) , thanks. -8.99%
